B1: library; a variant is named by its letters at N, in order (parent)
chain: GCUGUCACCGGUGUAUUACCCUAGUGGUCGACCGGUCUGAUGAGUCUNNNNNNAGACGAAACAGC

Variants of: B1
Assay: normalized RNA/DNA level without ligand (relative to sTRSVctl = 100) (log10 (% of sTRSVctl)); ligand: hypoxanthine (xanthine aptamer); higher = less ribozyme self-cleavage, higher mRNA level
Conditions: HEK293T, reporter: mCherry (pCS4076), ligand present: no
Reported normalized RNA/DNA level without ligand (log10) is given for each of the following variants.
A bare number is all that is needed in reply.

The following variants have reported results that may help.
* ACAUGC | 1.77
* UUGCAC | 1.9
* AUUAUA | 1.81
* GGAUUA | 1.83
* GGUUGG | 1.27

# normalized RNA/DNA level without ligand (log10) lookup, item `CCUCAC`
2.07

# normalized RNA/DNA level without ligand (log10) lookup, item `UUUCCU`
1.92

# normalized RNA/DNA level without ligand (log10) lookup, item `ACUCGC`
1.93

# normalized RNA/DNA level without ligand (log10) lookup, item `CCUGAG`
1.65

# normalized RNA/DNA level without ligand (log10) lookup, item `UGAUCC`
1.92

# normalized RNA/DNA level without ligand (log10) lookup, item `AACCCA`
1.85

# normalized RNA/DNA level without ligand (log10) lookup, item `CCUGGA`
1.88

# normalized RNA/DNA level without ligand (log10) lookup, item `AAGACC`
1.9

# normalized RNA/DNA level without ligand (log10) lookup, item `ACAGGU`
1.49

# normalized RNA/DNA level without ligand (log10) lookup, item `UCAUGC`
1.88

# normalized RNA/DNA level without ligand (log10) lookup, item `GACUCC`
1.96

# normalized RNA/DNA level without ligand (log10) lookup, item `UUUGAU`
1.8

# normalized RNA/DNA level without ligand (log10) lookup, item `AGUUGA`
1.63
